System: S. aureus Newman
Assay: Bliss interaction score (quartile over a dose matrix) (fitness difference); higher = more antagonism (negative = synergy);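 further: first quartile when negative (synergy) and third quartile when positive (antagonism)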

>  <Compound>
CC(=O)NC[C@H]1CN(c2ccc(N3CCOCC3)c(F)c2)C(=O)O1 [Linezolid] + COc1ccc(C[C@H](N)C(=O)N[C@H]2[C@@H](O)[C@H](n3cnc4c(N(C)C)ncnc43)O[C@@H]2CO)cc1 [Puromycin]

>  <Bliss interaction score>
-0.0605

$$$$
>  <Compound>
CN[C@@H]1[C@H](O[C@H]2[C@H](O[C@H]3[C@H](O)[C@@H](O)[C@H](N=C(N)N)[C@@H](O)[C@@H]3N=C(N)N)O[C@@H](C)[C@]2(O)C=O)O[C@@H](CO)[C@H](O)[C@H]1O [Streptomycin] + Oc1cc(Cl)ccc1Oc1ccc(Cl)cc1Cl [Triclosan]

>  <Bliss interaction score>
-0.0312

$$$$
>  <Compound>
CO[C@@]12[C@H](COC(N)=O)C3=C(C(=O)C(C)=C(N)C3=O)N1C[C@@H]1N[C@@H]12 [MitomycinC] + Cn1nnc(-c2ccc(-c3ccc(N4C[C@H](CO)OC4=O)cc3F)cn2)n1 [Tedizolid]

>  <Bliss interaction score>
-0.0886

$$$$
>  <Compound>
CN[C@H](CC(C)C)C(=O)N[C@H]1C(=O)N[C@@H](CC(N)=O)C(=O)N[C@H]2C(=O)N[C@H]3C(=O)N[C@H](C(=O)N[C@H](C(=O)O)c4cc(O)cc(O)c4-c4cc3ccc4O)[C@H](O[C@H]3C[C@](C)(N)[C@@H](O)[C@H](C)O3)c3ccc(c(Cl)c3)Oc3cc2cc(c3O[C@@H]2O[C@H](CO)[C@@H](O)[C@H](O)[C@H]2O[C@H]2C[C@](C)(NCc3ccc(-c4ccc(Cl)cc4)cc3)[C@@H](O)[C@H](C)O2)Oc2ccc(cc2Cl)[C@H]1O [Oritavancin] + Oc1cc(Cl)ccc1Oc1ccc(Cl)cc1Cl [Triclosan]

>  <Bliss interaction score>
-0.0473

$$$$

---

System: S. aureus Newman
Assay: Bliss interaction score (quartile over a dose matrix) (fitness difference); higher = more antagonism (negative = synergy)

>  <Compound>
CO[C@H]1/C=C/O[C@@]2(C)Oc3c(C)c(O)c4c(O)c(c(/C=N/N5CCN(C)CC5)c(O)c4c3C2=O)NC(=O)/C(C)=C\C=C\[C@H](C)[C@H](O)[C@@H](C)[C@@H](O)[C@@H](C)[C@H](OC(C)=O)[C@@H]1C [Rifampicin] + CN(N=O)C(=O)N[C@@H](C=O)[C@@H](O)[C@H](O)[C@H](O)CO [Streptozotocin]

>  <Bliss interaction score>
-0.0244

$$$$
>  <Compound>
CC[C@H]1OC(=O)[C@H](C)[C@@H](O[C@H]2C[C@@](C)(OC)[C@@H](O)[C@H](C)O2)[C@H](C)[C@@H](O[C@@H]2O[C@H](C)C[C@H](N(C)C)[C@H]2O)[C@](C)(O)C[C@@H](C)C(=O)[C@H](C)[C@@H](O)[C@]1(C)O [Erythromycin] + Oc1cc(Cl)ccc1Oc1ccc(Cl)cc1Cl [Triclosan]

>  <Bliss interaction score>
0.0312

$$$$

---

System: S. aureus DSM 20231
Assay: Bliss interaction score (quartile over a dose matrix) (fitness difference); higher = more antagonism (negative = synergy)
Label yes (1) when Bliss interaction score >= 0.07; otherwise no (0).

>  <Compound>
CO[C@@H]1[C@@H](OC(N)=O)[C@@H](O)[C@H](Oc2ccc3c(O)c(NC(=O)c4ccc(O)c(CC=C(C)C)c4)c(=O)oc3c2C)OC1(C)C [Novobiocin] + CN1C2=CC=CC=C2N=C3C1=CC=CC3=O [Pyocyanin]

>  <Class label>
no (0)

$$$$
>  <Compound>
CO[C@@H]1[C@@H](OC(N)=O)[C@@H](O)[C@H](Oc2ccc3c(O)c(NC(=O)c4ccc(O)c(CC=C(C)C)c4)c(=O)oc3c2C)OC1(C)C [Novobiocin] + CN(C)c1cc(NC(=O)CNC(C)(C)C)c(O)c2c1C[C@H]1C[C@H]3[C@H](N(C)C)C(O)=C(C(N)=O)C(=O)[C@@]3(O)C(O)=C1C2=O [Tigecycline]

>  <Class label>
yes (1)

$$$$
>  <Compound>
CO[C@@H]1[C@@H](OC(N)=O)[C@@H](O)[C@H](Oc2ccc3c(O)c(NC(=O)c4ccc(O)c(CC=C(C)C)c4)c(=O)oc3c2C)OC1(C)C [Novobiocin] + Cn1nnc(-c2ccc(-c3ccc(N4C[C@H](CO)OC4=O)cc3F)cn2)n1 [Tedizolid]

>  <Class label>
no (0)

$$$$
>  <Compound>
CN[C@@H]1[C@H](O[C@H]2[C@H](O[C@H]3[C@H](O)[C@@H](O)[C@H](N=C(N)N)[C@@H](O)[C@@H]3N=C(N)N)O[C@@H](C)[C@]2(O)C=O)O[C@@H](CO)[C@H](O)[C@H]1O [Streptomycin] + CCCc1nc2c(C)cc(-c3nc4ccccc4n3C)cc2n1Cc1ccc(-c2ccccc2C(=O)O)cc1 [Telmisartan]

>  <Class label>
yes (1)

$$$$
>  <Compound>
CC(=O)NC[C@H]1CN(c2ccc(N3CCOCC3)c(F)c2)C(=O)O1 [Linezolid] + CN(C)c1cc(NC(=O)CNC(C)(C)C)c(O)c2c1C[C@H]1C[C@H]3[C@H](N(C)C)C(O)=C(C(N)=O)C(=O)[C@@]3(O)C(O)=C1C2=O [Tigecycline]

>  <Class label>
no (0)

$$$$
>  <Compound>
CO[C@H]1/C=C/O[C@@]2(C)Oc3c(C)c(O)c4c(O)c(c(/C=N/N5CCN(C)CC5)c(O)c4c3C2=O)NC(=O)/C(C)=C\C=C\[C@H](C)[C@H](O)[C@@H](C)[C@@H](O)[C@@H](C)[C@H](OC(C)=O)[C@@H]1C [Rifampicin] + CCCSc1nc(N[C@@H]2C[C@H]2c2ccc(F)c(F)c2)c2nnn([C@@H]3C[C@H](OCCO)[C@@H](O)[C@H]3O)c2n1 [Ticagrelor]

>  <Class label>
yes (1)

$$$$

---

Tested on: S. pneumoniae D39V
Experiment: Bliss interaction score (quartile over a dose matrix) (fitness difference); higher = more antagonism (negative = synergy)
Outcome measure: Bliss interaction score

>  <Molecule>
CO[C@@]12[C@H](COC(N)=O)C3=C(C(=O)C(C)=C(N)C3=O)N1C[C@@H]1N[C@@H]12 [MitomycinC] + Oc1cc(Cl)ccc1Oc1ccc(Cl)cc1Cl [Triclosan]

>  <Readout number>
0.0578

$$$$
>  <Molecule>
CC[C@H]1OC(=O)[C@H](C)[C@@H](O[C@H]2C[C@@](C)(OC)[C@@H](O)[C@H](C)O2)[C@H](C)[C@@H](O[C@@H]2O[C@H](C)C[C@H](N(C)C)[C@H]2O)[C@](C)(O)C[C@@H](C)C(=O)[C@H](C)[C@@H](O)[C@]1(C)O [Erythromycin] + C[C@@H]1O[C@@H]1P(=O)(O)O [Fosfomycin]

>  <Readout number>
0.0627

$$$$
>  <Molecule>
CO[C@@H]1[C@@H](OC(N)=O)[C@@H](O)[C@H](Oc2ccc3c(O)c(NC(=O)c4ccc(O)c(CC=C(C)C)c4)c(=O)oc3c2C)OC1(C)C [Novobiocin] + CN1C2=CC=CC=C2N=C3C1=CC=CC3=O [Pyocyanin]

>  <Readout number>
0.116

$$$$
>  <Molecule>
CO[C@@]12[C@H](COC(N)=O)C3=C(C(=O)C(C)=C(N)C3=O)N1C[C@@H]1N[C@@H]12 [MitomycinC] + CN1C2=CC=CC=C2N=C3C1=CC=CC3=O [Pyocyanin]

>  <Readout number>
0.0705

$$$$
>  <Molecule>
CO[C@@H]1[C@@H](OC(N)=O)[C@@H](O)[C@H](Oc2ccc3c(O)c(NC(=O)c4ccc(O)c(CC=C(C)C)c4)c(=O)oc3c2C)OC1(C)C [Novobiocin] + CN[C@@H]1[C@H](O[C@H]2[C@H](O[C@H]3[C@H](O)[C@@H](O)[C@H](N=C(N)N)[C@@H](O)[C@@H]3N=C(N)N)O[C@@H](C)[C@]2(O)C=O)O[C@@H](CO)[C@H](O)[C@H]1O [Streptomycin]

>  <Readout number>
0.0562

$$$$
>  <Molecule>
CO[C@@H]1[C@@H](OC(N)=O)[C@@H](O)[C@H](Oc2ccc3c(O)c(NC(=O)c4ccc(O)c(CC=C(C)C)c4)c(=O)oc3c2C)OC1(C)C [Novobiocin] + Cc1cc(NS(=O)(=O)c2ccc(N)cc2)no1 [Sulfamethoxazol]

>  <Readout number>
-0.0959

$$$$
>  <Molecule>
CC[C@H]1OC(=O)[C@H](C)[C@@H](O[C@H]2C[C@@](C)(OC)[C@@H](O)[C@H](C)O2)[C@H](C)[C@@H](O[C@@H]2O[C@H](C)C[C@H](N(C)C)[C@H]2O)[C@](C)(O)C[C@@H](C)C(=O)[C@H](C)[C@@H](O)[C@]1(C)O [Erythromycin] + C[C@@H](O)[C@H]1C(=O)N2C(C(=O)O)=C(SCCNC=N)C[C@H]12 [Imipenem]

>  <Readout number>
-0.0344

$$$$
>  <Molecule>
CN[C@@H]1[C@H](O)[C@H](NC)[C@H]2O[C@@]3(O)C(=O)C[C@@H](C)O[C@H]3O[C@@H]2[C@H]1O [Spectinomycin] + Cc1cc(NS(=O)(=O)c2ccc(N)cc2)no1 [Sulfamethoxazol]

>  <Readout number>
-0.0374

$$$$
